experiment_description: Human pregnane X receptor (PXR) small molecule agonists, qHTS cell viability counter screen (AID 1346977); note: nearly all actives have a fitted effect of over 50% in size
cond: PXR-Luc HepG2 viability, CellTiter-Fluor, 24 h; series mostly up to 92.4 µM
Inconclusive results are not listed. Active and inactive are the calls of the source. Calls come from the whole dose curve; as a rule, active = well fitted cell-killing curve with a large enough effect in the repeat runs; inconclusive = weak or mixed curves, or effect the other way; inactive = flat fitted curve, though single readings scatter.
assay_metric: outcome

item_smiles	observed_result
CC(=O)OC/C=C(C)/C=C/C=C(C)/C=C/C1=C(C)CCCC1(C)C	inactive
Cc1cccc(Nc2cc(Cl)nc(SCC(=O)O)n2)c1C	inactive
O=C(O)Cc1cccc2ccccc12	inactive
OC[C@@H](O)[C@@H](O)[C@H](O)[C@H](O)CO	inactive
C=C(C)OC(C)=O	inactive
NC(=O)OCC(COC(N)=O)c1ccccc1	inactive
O=C(OCc1ccccc1)c1ccccc1	inactive
C#C[C@]1(O)CC[C@H]2[C@@H]3CCC4=CC(=O)CC[C@@H]4[C@H]3CC[C@@]21CC	inactive
O=c1c(-c2ccc(O)cc2)coc2cc(O)cc(O)c12	inactive
N[C@@H](Cc1c[nH]c2ccccc12)C(=O)O	inactive
Oc1cccc(O)c1	inactive
CCCCOCCOCCSC#N	inactive
COC(=O)c1ccc(O)cc1	inactive
